Would you mind telling me the reported protein stability index of each entry?
B1: FANCE (parent)
chain: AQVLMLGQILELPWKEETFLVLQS

Variants of: B1
Test: protein stability index of a GFP-peptide fusion (GPS, HEK-293T) (PSI 1-6); higher = more stable;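 further: lentivirally expressed fusions sorted by FACS into six bins by GFP to DsRed ratio, PSI derived from sequencing read proportions per bin multiplied by bin number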
Settings: c terminus: a fixed tail appended
Give the value as a plain number.

Query :: Fill blank: measured protein stability index of the variant S24W is ____.
Result :: 3.86

Query :: Fill blank: measured protein stability index of the variant W14I is ____.
Result :: 2.95

Query :: Fill blank: measured protein stability index of the variant A1V is ____.
Result :: 3.34

Query :: Fill blank: measured protein stability index of the variant Q2S is ____.
Result :: 2.87

Query :: Fill blank: measured protein stability index of the variant S24Y is ____.
Result :: 2.4

Query :: Fill blank: measured protein stability index of the variant S24D is ____.
Result :: 1.83

Query :: Fill blank: measured protein stability index of the variant M5Y is ____.
Result :: 2.58

Query :: Fill blank: measured protein stability index of the variant F19A is ____.
Result :: 1.77

Query :: Fill blank: measured protein stability index of the variant L6S is ____.
Result :: 2.7

Query :: Fill blank: measured protein stability index of the variant I9S is ____.
Result :: 2.09

Query :: Fill blank: measured protein stability index of the variant P13D is ____.
Result :: 2.95

Query :: Fill blank: measured protein stability index of the variant E17G is ____.
Result :: 4.35

Query :: Fill blank: measured protein stability index of the variant Q2P is ____.
Result :: 1.55

Query :: Fill blank: measured protein stability index of the variant L6T is ____.
Result :: 2.23

Query :: Fill blank: measured protein stability index of the variant L20N is ____.
Result :: 2.56

Query :: Fill blank: measured protein stability index of the variant K15F is ____.
Result :: 2.52

Query :: Fill blank: measured protein stability index of the variant V21P is ____.
Result :: 2.17

Query :: Fill blank: measured protein stability index of the variant V21T is ____.
Result :: 3.45

Query :: Fill blank: measured protein stability index of the variant E11A is ____.
Result :: 4.02

Query :: Fill blank: measured protein stability index of the variant L6H is ____.
Result :: 3.74

Query :: Fill blank: measured protein stability index of the variant I9D is ____.
Result :: 2.85

Query :: Fill blank: measured protein stability index of the variant S24E is ____.
Result :: 3.98
